Each entry below carries its reported pIC50.
TEST SYSTEM: AT1 receptor (Rattus norvegicus, UniProt P25095)
Sequence (P25095 1-359): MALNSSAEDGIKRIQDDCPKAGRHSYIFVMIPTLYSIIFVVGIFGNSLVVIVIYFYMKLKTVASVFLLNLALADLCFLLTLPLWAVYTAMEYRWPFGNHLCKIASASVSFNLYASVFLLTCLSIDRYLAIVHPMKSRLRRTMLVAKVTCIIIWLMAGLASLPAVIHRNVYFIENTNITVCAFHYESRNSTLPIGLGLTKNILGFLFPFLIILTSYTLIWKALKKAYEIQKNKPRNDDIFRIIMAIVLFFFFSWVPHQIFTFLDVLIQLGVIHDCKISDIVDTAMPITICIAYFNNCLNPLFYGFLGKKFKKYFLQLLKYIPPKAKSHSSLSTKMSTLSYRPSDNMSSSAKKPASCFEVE
Where a name gives a salt, the structure may show the parent alone.
In simple prose, pIC50 is minus the logarithm base ten of a concentration in moles per litre.

# count of solved cases: 10
CCCCc1ncc(/C=C2/C(=O)NC(=O)N2CCCC)n1Cc1ccc(-c2nn[nH]n2)cc1 [Example 76a]	8.47
CCCCc1ncc(/C=C2/C(=O)N(CCCC)C(=O)N2CCCC)n1Cc1ccc(C(=O)O)cc1 [Example 73]	8.89
CCCCc1ncc(/C=C2\C(=O)NC(=O)N2c2ccccc2)n1Cc1ccc(C(=O)O)cc1 [Example 5]	6.19
CCCCc1ncc(/C=C2/C(=O)N(CCCC)C(=O)N2Cc2csc(C)n2)n1Cc1ccc(C2(C(=O)O)CCCC2)cc1 [Example 85]	8.73
CCCCc1ncc(/C=C2/C(=O)NC(=O)N2Cc2ccc(OC)c(OC)c2)n1Cc1ccc(C(=O)O)cc1 [Example 21b]	7.05
CCCCc1ncc(/C=C2/C(=O)N(CCCC)C(=O)N2Cc2csc(C)n2)n1Cc1ccc(C(=O)OC)cc1Cl [Example 110, monohydrochloride]	8.61
CCCCc1ncc(/C=C2/C(=O)N(COC)C(=O)N2CCCC)n1Cc1ccc(C(=O)OC)cc1 [Example 54, monohydrochloride]	7.53
CCCCc1ncc(/C=C2/C(=O)N(COC)C(=O)N2Cc2ccccc2)n1Cc1ccc(C(=O)OC)cc1 [Example 55, monohydrochloride]	7.89
CCCCc1ncc(/C=C2/C(=O)N(CC3CC3)C(=O)N2Cc2cccs2)n1Cc1ccc(C(=O)OC)cc1 [Example 89, monohydrochloride]	8.59
CCCCc1ncc(/C=C2/C(=O)N(CCCC)C(=O)N2Cc2cccs2)n1Cc1ccc(C(=O)OC)cc1 [Example 23, monohydrochloride]	8.47

Query: pIC50; subject: CCCCc1ncc(/C=C2/C(=O)N(CCCC)C(=O)N2Cc2ccc(C(=O)OC)cc2)n1Cc1ccc(C(=O)OC)cc1 [Example 37, monohydrochloride]
7.84

What value of pIC50 has been recorded for this entry: CCCCc1ncc(/C=C2/C(=O)NC(=O)N2CCCC)n1Cc1ccc(C(=O)OC)cc1 [Example 15b]
7.99

Param item = CCCCc1ncc(/C=C2/C(=O)N(CO)C(=O)N2Cc2csc(C)n2)n1Cc1ccc(C(=O)OC)cc1 [Example 101] ; retrieve measured pIC50.
7.45

Given the compound CCCCc1ncc(/C=C2/C(=O)NC(=O)N2CCCC)n1Cc1ccc(C(=O)OC)cc1Cl [Example 87a] , what is its reported pIC50?
8.00
